Measured TGI, listed per entry for reference.
test system: A498 renal; assay: NCI tumour cell line growth inhibition, 48 h

Completed entries (count: 2):
Smiles entry | Test value
c1ccc(CNc2ncnc3n[nH]nc23)cc1 | > 100 µM
O=C(/C=C/c1ccccc1)CCc1c(O)c2ccccc2oc1=O | > 100 µM

For the next question, use this compound.
Query: Give A498 renal TGI for Cc1ccc2c(=O)c(C(=O)N(CCO)CCO)c[nH]c2n1
Reply: > 100 µM

----------
system: EKVX NSCLC; test: NCI tumour cell line growth inhibition, 48 h
// TGI lookup, one value per entry

Study these solved cases before continuing.
Smiles entry | Tested on | Readout label | Test value
O=c1cccccc1NCCNc1cccccc1=O | EKVX NSCLC | TGI | > 100 µM
COc1cc(S(=O)(=O)N/N=C/c2cc(Br)c(O)c(OC)c2)c(OC)cc1NC(C)=O | EKVX NSCLC | TGI | > 100 µM
N#Cc1c(NCc2ccccc2)nc(NCc2ccccc2)c(C#N)c1-c1cccc(O)c1 | EKVX NSCLC | TGI | 45 µM

Query: Suppose we examine the molecule C=Cc1cnc([N+](=O)[O-])n1C ; what TGI value has been reported?
Reply: > 100 µM

Query: Same again, this time with C=C1C(=O)O[C@H]2[C@H]([C@H](C)CCCC(C)=O)O[C@H]([C@@]3(C)CCC(=O)O3)C[C@@H]12
Reply: > 100 µM
